Data provenance: paper PMC8185074

tested system: HDAC6 (Homo sapiens)
Construct: purchased Reaction Biology Corporation (assay run by the CRO)
Sequence (Q9UBN7 1-1215): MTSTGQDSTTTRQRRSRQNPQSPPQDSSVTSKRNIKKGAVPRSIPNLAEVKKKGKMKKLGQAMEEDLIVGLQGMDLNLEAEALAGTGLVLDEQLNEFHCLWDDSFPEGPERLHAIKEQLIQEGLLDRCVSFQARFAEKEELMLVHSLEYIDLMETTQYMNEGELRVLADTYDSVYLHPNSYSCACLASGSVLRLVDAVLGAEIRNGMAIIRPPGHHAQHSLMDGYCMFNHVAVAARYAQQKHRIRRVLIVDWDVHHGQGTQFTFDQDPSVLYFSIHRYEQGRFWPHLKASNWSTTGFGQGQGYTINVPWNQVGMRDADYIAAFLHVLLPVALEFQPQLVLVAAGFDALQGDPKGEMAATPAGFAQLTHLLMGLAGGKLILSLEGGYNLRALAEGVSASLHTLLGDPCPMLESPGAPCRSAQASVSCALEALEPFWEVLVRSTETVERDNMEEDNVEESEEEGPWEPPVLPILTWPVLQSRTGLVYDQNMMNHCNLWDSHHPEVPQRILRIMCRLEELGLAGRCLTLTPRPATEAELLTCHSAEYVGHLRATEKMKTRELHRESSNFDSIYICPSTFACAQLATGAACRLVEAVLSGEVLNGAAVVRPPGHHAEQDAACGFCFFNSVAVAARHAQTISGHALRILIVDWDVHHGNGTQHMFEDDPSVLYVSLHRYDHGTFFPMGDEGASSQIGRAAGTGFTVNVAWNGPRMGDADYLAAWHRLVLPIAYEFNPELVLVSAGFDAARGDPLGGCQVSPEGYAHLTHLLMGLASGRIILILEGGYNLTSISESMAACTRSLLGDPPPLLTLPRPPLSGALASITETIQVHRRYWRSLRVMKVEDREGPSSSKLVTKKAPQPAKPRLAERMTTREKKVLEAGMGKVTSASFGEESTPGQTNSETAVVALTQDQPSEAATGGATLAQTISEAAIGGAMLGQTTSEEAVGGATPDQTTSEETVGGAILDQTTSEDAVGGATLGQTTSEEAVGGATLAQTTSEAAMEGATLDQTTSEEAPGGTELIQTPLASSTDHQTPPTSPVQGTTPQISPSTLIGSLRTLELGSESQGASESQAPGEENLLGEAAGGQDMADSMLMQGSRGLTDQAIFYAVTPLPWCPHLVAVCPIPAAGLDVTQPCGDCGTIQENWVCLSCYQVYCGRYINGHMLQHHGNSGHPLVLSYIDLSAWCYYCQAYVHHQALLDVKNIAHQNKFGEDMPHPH
experiment description: HDAC6 inhibition, full IC50 measurement (Reaction Biology; fluorogenic p53 peptide RHKK(Ac)AMC)
Type: biochemical
cond: Conc. 1.52E-09 M, t2
Peptide text beside a SMILES is read from it.
Decide using HDAC6 activity raw data (signal): a value greater than or equal to 500000 is rule met, a smaller one is rule not met.

molecule	tested system	classification
NCCCC[C@H]1NC(=O)[C@H](CCC(N)=O)NC(=O)[C@H](CCC(=O)O)NC(=O)[C@@H]2CCCN2C(=O)[C@H](CC(N)=O)NC(=O)[C@H](CCCCCS)NC(=O)CNC(=O)[C@H](Cc2c[nH]c3ccccc23)NC1=O [des1.1.1, SHA-Asn-Pro-Glu-Gln-dLys-Trp-Gly] (HELM PEPTIDE1{E.Q.[dK].W.G.[O=C([C@H](CCCCCS)N[*:1])[*:2]].N.P}$PEPTIDE1,PEPTIDE1,1:R1-8:R2$$$V2.0)	HDAC6 (Homo sapiens)	rule met

[ask] Is the recorded value of HDAC6 activity raw data (signal) equal to or greater than 500000 for this molecule? N=C(N)NCCC[C@@H]1NC(=O)[C@@H](CCCNC(=N)N)NC(=O)[C@H]2CCCN2C(=O)[C@@H](Cc2c[nH]cn2)NC(=O)[C@H](Cc2ccc(O)cc2)NC(=O)[C@H](CCCCCS)NC(=O)[C@H](CCc2ccccc2)NC(=O)[C@@H](CO)NC(=O)[C@H](CC(=O)O)NC1=O [des3.3.1, SHA-Tyr-dHis-dPro-dArg-Arg-Asp-dSer-C27] (HELM PEPTIDE1{[O=C([C@H](CCCCCS)N[*:1])[*:2]].Y.[dH].[dP].[dR].R.D.[dS].[O=C([C@H](CCc1ccccc1)N[*:1])[*:2]]}$PEPTIDE1,PEPTIDE1,1:R1-9:R2$$$V2.0)
[reply] rule not met

[ask] Is the recorded value of HDAC6 activity raw data (signal) equal to or greater than 500000 for this molecule? CSCC[C@H]1NC(=O)[C@@H](CO)NC(=O)[C@H](CC(N)=O)NC(=O)[C@H](CC(=O)O)NC(=O)[C@@H]([C@H](C)O)NC(=O)[C@H](Cc2c[nH]c3ccccc23)NC(=O)[C@H](CCCCCS)NC(=O)[C@H](CCCCN)NC(=O)[C@@H](CC(=O)O)NC1=O [des2.1.1, SHA-Trp-dThr-Asp-Asn-dSer-dMet-dAsp-Lys] (HELM PEPTIDE1{D.N.[dS].[dM].[dD].K.[O=C([C@H](CCCCCS)N[*:1])[*:2]].W.[dT]}$PEPTIDE1,PEPTIDE1,1:R1-9:R2$$$V2.0)
[reply] rule not met

[ask] Is the recorded value of HDAC6 activity raw data (signal) equal to or greater than 500000 for this molecule? CCCC[C@H]1NC(=O)[C@H](CC(=O)O)NC(=O)[C@@H](CO)NC(=O)[C@@H](C)NC(=O)[C@H](CCCCN)NC(=O)[C@@H](CCCCN)NC(=O)[C@H](Cc2ccccc2)NC(=O)[C@H](CCCCCS)NC1=O [des4.3.1.2, SHA-Phe-dLys-Lys-dAla-dSer-Asp-dNle] (HELM PEPTIDE1{D.[CCCC[C@@H](N[*:1])C(=O)[*:2]].[O=C([C@H](CCCCCS)N[*:1])[*:2]].F.[dK].K.[dA].[dS]}$PEPTIDE1,PEPTIDE1,1:R1-8:R2$$$V2.0)
[reply] rule met

[ask] Is the recorded value of HDAC6 activity raw data (signal) equal to or greater than 500000 for this molecule? CC(C)[C@@H]1NC(=O)[C@H](CCCNC(=N)N)NC(=O)[C@@H](CC(=O)O)NC(=O)[C@H](CO)NC(=O)[C@@H](CO)NC(=O)[C@@H](CCC(=O)O)NC(=O)[C@H](Cc2ccc(O)cc2)NC(=O)[C@H](CCCCCS)NC1=O [des4.2.0, SHA-Tyr-dGlu-dSer-Ser-dAsp-Arg-Val] (HELM PEPTIDE1{R.V.[O=C([C@H](CCCCCS)N[*:1])[*:2]].Y.[dE].[dS].S.[dD]}$PEPTIDE1,PEPTIDE1,1:R1-8:R2$$$V2.0)
[reply] rule met
